Measured Radioactivity distribution Liver of individual entries
Test: In vivo kinetics experiment (radioactivity distribution)
Parameters: species or system Wistar male rat
Conditions: 30 min after administration; rat i.v.; mean ± SD
// return numeric value only (unit: % ID/g, not printed)

Some entries whose results are on file:
| Molecule | Radioactivity distribution Liver (% ID/g) |
| --- | --- |
| Fc1cc2nc(-c3cncc(Cn4ccnc4)c3)n(Cc3ccc([123I])cc3)c2cc1Cl [[^123I] 605] | 2.72 |
| COC(=O)c1cncn1[C@H](C)c1ccc(I)cc1 [[^123I] IMTO, (R)-[^123I]iodometomidate, reference compound] | 1.82 |

Shift focus to the following entry.
Tell me the measured Radioactivity distribution Liver of FCCn1c(-c2cncc(Cn3cncc3[123I])c2)nc2cc(F)c(Cl)cc21 [[^123I] 610] , please. 2.46

----------
Assay: In vivo kinetics experiment (radioactivity distribution)
Parameters: species or system Wistar male rat
Conditions: rat, caudal vein, 60 min after administration
// reported Radioactivity distribution Adrenal gland for each item listed
Express it in % ID/g; write the number only.

Previously resolved entries follow.
| Compound | Output Unit | Measured Result |
| --- | --- | --- |
| Fc1cc2nc(-c3cncc(Cn4ccnc4)c3)n(CC[18F])c2cc1Br [[^18F] 200] | % ID/g | 21.73 |
| [123I]c1ccc2nc(-c3cncc(Cn4ccnc4)c3)n(C3CC3)c2c1 [[^123I] 602] | % ID/g | 11.65 |
| Fc1cc2nc(-c3cncc(Cn4ccnc4)c3)n(CC[18F])c2cc1Cl [[^18F] 100] | % ID/g | 21.34 |
| [123I]c1ccc2nc(-c3cncc(Cn4ccnn4)c3)n(C3CC3)c2c1 [[^123I] 603] | % ID/g | 18.65 |
| FCCn1c(-c2cncc(Cn3ccnc3)c2)nc2cc(F)c([123I])cc21 [[^123I] 400] | % ID/g | 11.65 |

# next compound below
Please report the recorded Radioactivity distribution Adrenal gland for Fc1cc2nc(-c3cncc(Cn4ccnc4)c3)n(CCC[18F])c2cc1Cl [[^18F] 500] . 21.41

----------
Assay: In vivo kinetics experiment (radioactivity distribution)
Design: species or system Wistar male rat
Details: rat, caudal vein, 10 min after administration
Checkbox rule: Adrenal gland/blood ratio of radioactivity accumulation lower than 50 = YES; Adrenal gland/blood ratio of radioactivity accumulation not lower than 50 = NO.

// below: answered compounds
| Compound | Qualitative Label |
| --- | --- |
| Fc1cc2nc(-c3cncc(Cn4ccnc4)c3)n(CC[18F])c2cc1Br [[^18F] 200] | NO |
| [123I]c1ccc2nc(-c3cncc(Cn4ccnn4)c3)n(C3CC3)c2c1 [[^123I] 603] | NO |
| Fc1cc2nc(-c3cncc(Cn4ccnc4)c3)n(CC[18F])c2cc1Cl [[^18F] 100] | NO |
| Fc1cc2nc(-c3cncc(Cn4ccnc4)c3)n(CCC[18F])c2cc1Cl [[^18F] 500] | NO |
| [123I]c1ccc2nc(-c3cncc(Cn4ccnc4)c3)n(C3CC3)c2c1 [[^123I] 602] | YES |

Decide: Adrenal gland/blood ratio of radioactivity accumulation of FCCn1c(-c2cncc(Cn3ccnc3)c2)nc2cc(F)c([123I])cc21 [[^123I] 400] strictly below 50? YES

----------
Measured Radioactivity distribution Whole brain values are reported for all entries that follow.
Assay: In vivo kinetics experiment (radioactivity distribution)
Set-up: species or system Wistar male rat
Settings: 30 min after administration; rat i.v.; mean ± SD
Experimental: Each of Compounds [^18F] 100, [^18F] 200, [^123I] 400, [^18F] 500, and [^123I] 601 to 610 obtained by the methods described in Examples 2, 4, 7, 9, 11, 13, 15, 17, 19, 21, 23, 25, 27, and 29, or [^123I] […] From the thus sacrificed rat, blood and organs (heart, lung, stomach, liver, spleen, small intestine, large intestine, kidney, bladder (including urine), muscle (lower limbs), brain, adrenal gland, testis, fat, femur, or thyroid gland) were excised, and the weights thereof were then measured. […]
Dear colleague, please return just the value in % ID/g, with no unit written.

Some compounds with known Radioactivity distribution Whole brain results, for comparison:
| Compound | Output Unit | Radioactivity distribution Whole brain |
| --- | --- | --- |
| CCn1c(-c2cncc(Cn3ccnc3)c2)nc2ccc([123I])cc21 [[^123I] 608] | % ID/g | 0.02 |
| FCCn1c(-c2cncc(Cn3ccnc3)c2)nc2ccc([123I])cc21 [[^123I] 604] | % ID/g | 0.01 |
| Fc1cc2nc(-c3cncc(Cn4ccnc4)c3)n(Cc3ccc([123I])cc3)c2cc1Cl [[^123I] 605] | % ID/g | 0.03 |

Param item = CC(C)n1c(-c2cncc(Cn3ccnc3)c2)nc2ccc([123I])cc21 [[^123I] 606] ; retrieve measured Radioactivity distribution Whole brain. 0.03

Entry Cn1c(-c2cncc(Cn3ccnc3)c2)nc2ccc([123I])cc21 [[^123I] 607] : reported Radioactivity distribution Whole brain = ? 0.02

Quick one: Radioactivity distribution Whole brain of COC(=O)c1cncn1[C@H](C)c1ccc(I)cc1 [[^123I] IMTO, (R)-[^123I]iodometomidate, reference compound] ? 0.18

Consider the compound FCCn1c(-c2cncc(Cn3cncc3[123I])c2)nc2cc(F)c(Cl)cc21 [[^123I] 610] and give its measured Radioactivity distribution Whole brain. 0.04

What value of Radioactivity distribution Whole brain has been recorded for this entry: COc1cc([123I])cc2c1nc(-c1cncc(Cn3ccnc3)c1)n2C1CC1 [[^123I] 609] 0.02

----------
Assay: In vivo kinetics experiment (radioactivity distribution)
Design: species or system Wistar male rat
Details: rat, caudal vein, 30 min after administration
Overview of reported Radioactivity distribution Bladder (including urine) across a group of compounds:
API: value field is a number in % ID/g; no unit string.

Please report the recorded Radioactivity distribution Bladder (including urine) for FCCn1c(-c2cncc(Cn3ccnc3)c2)nc2cc(F)c([123I])cc21 [[^123I] 400] . 1.35

Which Radioactivity distribution Bladder (including urine) value is on record for Fc1cc2nc(-c3cncc(Cn4ccnc4)c3)n(CC[18F])c2cc1Br [[^18F] 200] ? 2.82

Return reported Radioactivity distribution Bladder (including urine); argument: [123I]c1ccc2nc(-c3cncc(Cn4ccnc4)c3)n(C3CC3)c2c1 [[^123I] 602] 1.35

Which Radioactivity distribution Bladder (including urine) value belongs to Fc1cc2nc(-c3cncc(Cn4ccnc4)c3)n(CC[18F])c2cc1Cl [[^18F] 100] ? 1.17

Recorded Radioactivity distribution Bladder (including urine) for Fc1cc2nc(-c3cncc(Cn4ccnc4)c3)n(CCC[18F])c2cc1Cl [[^18F] 500] , please? 2.02

Item [123I]c1ccc2nc(-c3cncc(Cn4ccnn4)c3)n(C3CC3)c2c1 [[^123I] 603] has what recorded Radioactivity distribution Bladder (including urine)? 1.13

----------
Experiment: In vivo kinetics experiment (radioactivity distribution)
Design: species or system Wistar male rat
Settings: rat, caudal vein, 10 min after administration
Measurement Kind: Radioactivity distribution Lung (% ID/g)
Enter your answer as a number in % ID/g; do not include the unit.

| Molecule | Radioactivity distribution Lung / % ID/g |
| --- | --- |
| [123I]c1ccc2nc(-c3cncc(Cn4ccnn4)c3)n(C3CC3)c2c1 [[^123I] 603] | 0.98 |
| Fc1cc2nc(-c3cncc(Cn4ccnc4)c3)n(CC[18F])c2cc1Br [[^18F] 200] | 0.54 |
| FCCn1c(-c2cncc(Cn3ccnc3)c2)nc2cc(F)c([123I])cc21 [[^123I] 400] | 1.06 |
| Fc1cc2nc(-c3cncc(Cn4ccnc4)c3)n(CC[18F])c2cc1Cl [[^18F] 100] | 0.63 |
| Fc1cc2nc(-c3cncc(Cn4ccnc4)c3)n(CCC[18F])c2cc1Cl [[^18F] 500] | 0.68 |

Consider now this further molecule.
Which value of Radioactivity distribution Lung has been reported for [123I]c1ccc2nc(-c3cncc(Cn4ccnc4)c3)n(C3CC3)c2c1 [[^123I] 602] in the records? 1.06

----------
Test: In vivo kinetics experiment (radioactivity distribution)
Parameters: species or system Wistar male rat
Conditions: 30 min after administration; rat i.v.; mean ± SD
Procedure: Each of Compounds [^18F] 100, [^18F] 200, [^123I] 400, [^18F] 500, and [^123I] 601 to 610 obtained by the methods described in Examples 2, 4, 7, 9, 11, 13, 15, 17, 19, 21, 23, 25, 27, and 29, or [^123I] […] From the thus sacrificed rat, blood and organs (heart, lung, stomach, liver, spleen, small intestine, large intestine, kidney, bladder (including urine), muscle (lower limbs), brain, adrenal gland, testis, fat, femur, or thyroid gland) were excised, and the weights thereof were then measured. […]
Rule: Radioactivity distribution Spleen below 1 % ID/g gives criterion met, anything at or above gives criterion not met.

Take a look at these entries with their results.
| Compound | Qualitative Label |
| --- | --- |
| FCCn1c(-c2cncc(Cn3ccnc3)c2)nc2ccc([123I])cc21 [[^123I] 604] | criterion not met |
| CCn1c(-c2cncc(Cn3ccnc3)c2)nc2ccc([123I])cc21 [[^123I] 608] | criterion not met |
| CC(C)n1c(-c2cncc(Cn3ccnc3)c2)nc2ccc([123I])cc21 [[^123I] 606] | criterion not met |
| COc1cc([123I])cc2c1nc(-c1cncc(Cn3ccnc3)c1)n2C1CC1 [[^123I] 609] | criterion met |
| COC(=O)c1cncn1[C@H](C)c1ccc(I)cc1 [[^123I] IMTO, (R)-[^123I]iodometomidate, reference compound] | criterion met |
| Cn1c(-c2cncc(Cn3ccnc3)c2)nc2ccc([123I])cc21 [[^123I] 607] | criterion not met |

Okay, next one:
Dear colleague, could you confirm whether Radioactivity distribution Spleen of Fc1cc2nc(-c3cncc(Cn4ccnc4)c3)n(Cc3ccc([123I])cc3)c2cc1Cl [[^123I] 605] falls below 1 % ID/g? Thanks. criterion met
